Kd reference
biological target: MAP kinase-activated protein kinase 3 (Homo sapiens, UniProt Q16644); also: in the data inactive means no Kd found up to 30 µM
Sequence (Q16644 whole entry): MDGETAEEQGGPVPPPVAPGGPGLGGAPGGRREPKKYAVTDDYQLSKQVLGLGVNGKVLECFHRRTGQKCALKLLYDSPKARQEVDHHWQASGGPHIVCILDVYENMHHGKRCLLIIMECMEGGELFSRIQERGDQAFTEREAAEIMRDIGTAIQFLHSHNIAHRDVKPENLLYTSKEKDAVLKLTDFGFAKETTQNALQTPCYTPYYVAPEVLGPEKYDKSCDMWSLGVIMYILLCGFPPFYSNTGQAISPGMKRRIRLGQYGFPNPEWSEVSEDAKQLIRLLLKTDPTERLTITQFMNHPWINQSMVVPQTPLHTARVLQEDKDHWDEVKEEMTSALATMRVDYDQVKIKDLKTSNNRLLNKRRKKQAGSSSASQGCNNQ
Active and inactive are the calls of the source.

# molecule, system-under-test, Kd
records = [
    ("CCN1CCN(Cc2ccc(-c3cc4c(N[C@H](C)c5ccccc5)ncnc4[nH]3)cc2)CC1", "MAP kinase-activated protein kinase 3 (Homo sapiens, UniProt Q16644)", "> 30 µM (inactive)"),
    ("OCCn1cc(-c2cnc3nnn(Cc4ccc5ncccc5c4)c3n2)cn1", "MAP kinase-activated protein kinase 3 (Homo sapiens, UniProt Q16644)", "> 30 µM (inactive)"),
    ("CNS(=O)(=O)Nc1nccc(Cc2c(C)c3ccc(Oc4ncccn4)cc3oc2=O)c1F", "MAP kinase-activated protein kinase 3 (Homo sapiens, UniProt Q16644)", "> 30 µM (inactive)"),
    ("CCS(=O)(=O)N1CC(CC#N)(n2cc(-c3ncnc4[nH]ccc34)cn2)C1", "MAP kinase-activated protein kinase 3 (Homo sapiens, UniProt Q16644)", "> 30 µM (inactive)"),
    ("O=C(Nc1ccc(-c2ccnc(Nc3ccc(N4CCOCC4)cc3)n2)cc1)C1CCCN1 (stereo not drawn)", "MAP kinase-activated protein kinase 3 (Homo sapiens, UniProt Q16644)", "> 30 µM (inactive)"),
    ("CC[C@H](Nc1ncnc2[nH]cnc12)c1nc2cccc(F)c2c(=O)n1-c1ccccc1", "MAP kinase-activated protein kinase 3 (Homo sapiens, UniProt Q16644)", "> 30 µM (inactive)"),
    ("COC(=O)[C@@]1(O)C[C@H]2O[C@]1(C)n1c3ccccc3c3c4c(c5c6ccccc6n2c5c31)C(=O)NC4 [K-252A]", "MAP kinase-activated protein kinase 3 (Homo sapiens, UniProt Q16644)", "> 30 µM (inactive)"),
    ("COc1cc2nccc(Oc3ccc(NC(=O)NC4CC4)c(Cl)c3)c2cc1C(N)=O", "MAP kinase-activated protein kinase 3 (Homo sapiens, UniProt Q16644)", "> 30 µM (inactive)"),
]

Origin of measurements: ChEMBL document CHEMBL3991601
